Target: Neu5Ac(a2-3)Gal(b1-3)[Fuc(a1-4)]GlcNAc(b1-3)Gal(b1-3)[Fuc(a1-4)]GlcNAc
Assay: glycan array binding signal (z-score within array); higher = stronger binding
Details: glycan notation: IUPAC condensed, linker removed
The entries come from a sample that favours the strongest signals as a whole.
Each entry below carries its recorded glycan array binding signal (z-score).

BINDER: Arath Fbox (Arabidopsis thaliana), NP_178341.1 (protein) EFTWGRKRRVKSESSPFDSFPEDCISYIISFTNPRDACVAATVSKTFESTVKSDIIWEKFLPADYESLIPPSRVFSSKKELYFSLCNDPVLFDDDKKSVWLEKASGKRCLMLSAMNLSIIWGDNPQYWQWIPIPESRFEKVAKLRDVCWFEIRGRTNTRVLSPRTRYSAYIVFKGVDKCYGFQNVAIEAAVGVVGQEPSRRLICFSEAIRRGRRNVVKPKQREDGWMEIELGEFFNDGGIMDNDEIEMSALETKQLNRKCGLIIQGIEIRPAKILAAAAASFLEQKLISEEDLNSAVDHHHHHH
glycan array binding signal (z-score): 0.221

BINDER: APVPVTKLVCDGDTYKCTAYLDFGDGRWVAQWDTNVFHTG [PhoSpL (Pholiota squarrosa)]
glycan array binding signal (z-score): -0.57

BINDER: Cohesin-mDCIR (Macaca mulatta) (protein) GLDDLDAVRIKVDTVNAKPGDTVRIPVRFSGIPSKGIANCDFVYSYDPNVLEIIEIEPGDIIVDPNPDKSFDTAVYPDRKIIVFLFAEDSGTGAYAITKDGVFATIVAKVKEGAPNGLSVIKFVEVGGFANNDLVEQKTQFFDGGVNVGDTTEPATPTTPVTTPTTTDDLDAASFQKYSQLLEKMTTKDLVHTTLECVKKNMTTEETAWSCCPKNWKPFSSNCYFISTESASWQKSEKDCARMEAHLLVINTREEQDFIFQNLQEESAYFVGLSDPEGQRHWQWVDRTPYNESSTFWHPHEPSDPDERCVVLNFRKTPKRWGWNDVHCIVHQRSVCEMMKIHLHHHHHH
glycan array binding signal (z-score): -0.418

BINDER: MFG-E8 (Homo sapiens), Q08431 (protein) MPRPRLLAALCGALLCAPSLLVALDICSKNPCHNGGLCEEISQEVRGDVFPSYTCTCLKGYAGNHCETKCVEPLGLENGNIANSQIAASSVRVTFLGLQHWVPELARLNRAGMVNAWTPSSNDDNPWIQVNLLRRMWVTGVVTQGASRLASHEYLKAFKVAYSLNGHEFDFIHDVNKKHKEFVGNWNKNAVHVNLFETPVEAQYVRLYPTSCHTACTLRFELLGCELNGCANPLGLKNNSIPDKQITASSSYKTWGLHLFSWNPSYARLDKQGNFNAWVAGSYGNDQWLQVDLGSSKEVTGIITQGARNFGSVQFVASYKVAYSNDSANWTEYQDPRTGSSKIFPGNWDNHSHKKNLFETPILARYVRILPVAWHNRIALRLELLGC
glycan array binding signal (z-score): 1.24
